target_or_system: ETS1 (UniProt P14921)
Sequence: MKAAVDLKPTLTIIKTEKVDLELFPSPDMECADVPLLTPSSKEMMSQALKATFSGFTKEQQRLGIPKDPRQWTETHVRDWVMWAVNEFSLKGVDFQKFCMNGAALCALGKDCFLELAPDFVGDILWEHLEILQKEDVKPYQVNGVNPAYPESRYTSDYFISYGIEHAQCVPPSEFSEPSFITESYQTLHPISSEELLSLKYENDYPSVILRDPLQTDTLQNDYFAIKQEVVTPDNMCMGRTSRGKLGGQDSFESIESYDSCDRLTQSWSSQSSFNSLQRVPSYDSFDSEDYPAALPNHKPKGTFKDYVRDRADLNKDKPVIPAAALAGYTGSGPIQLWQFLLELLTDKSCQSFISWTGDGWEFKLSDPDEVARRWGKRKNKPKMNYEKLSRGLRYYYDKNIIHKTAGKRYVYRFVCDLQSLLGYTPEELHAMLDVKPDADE
procedure_details: TF binding intensity (PBM fluorescence), negative control probe (arbitrary fluorescence units); higher = stronger binding
measure: TF binding intensity

-- ask For ACTGATCATCTGAAATGTGGCTAGTGTGAAAATGAA (protein concentration 1 nM) , what is its reported TF binding intensity?
-- reply 532

-- ask I would be grateful if you could share the reported TF binding intensity for CCCTTCGCCATTGCAGCCATGCCACCCCTCCTTCTC (protein concentration 10 nM) .
-- reply 149

-- ask Which TF binding intensity value is on record for TAAGTATTAAGAGTTGCAACACTCTAATCAAGGATA (protein concentration 10 nM) ?
-- reply 102

-- ask Sample GCAGTGAGCTGAGATCACACCATTGCACTCCAGCCT (protein concentration 10 nM) — what was its TF binding intensity?
-- reply 135
